Where do these numbers come from? They come from patent US10221138B2.

biological target: hGPR120 (Homo sapiens); construct: expressed in transfected cells; host or cells: CHO-K1; assay: Measurement of activity of GPR120 agonist (cell-based calcium fluorescence assay); settings: CHO-K1 cells expressing Ga16 and hGPR120, Calcium 5 dye fluorescence; activity class; read-out: EC50
Sequence (Q5NUL3 whole entry): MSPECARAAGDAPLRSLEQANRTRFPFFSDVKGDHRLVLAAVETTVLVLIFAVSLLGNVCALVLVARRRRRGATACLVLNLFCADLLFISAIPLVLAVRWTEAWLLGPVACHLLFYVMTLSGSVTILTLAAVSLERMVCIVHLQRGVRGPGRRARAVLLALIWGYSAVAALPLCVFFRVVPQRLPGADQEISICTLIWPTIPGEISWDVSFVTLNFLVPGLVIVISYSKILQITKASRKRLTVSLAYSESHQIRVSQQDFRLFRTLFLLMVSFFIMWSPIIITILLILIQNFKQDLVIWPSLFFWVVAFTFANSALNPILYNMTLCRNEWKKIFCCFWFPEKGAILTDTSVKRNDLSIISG
pEC50: −log10 of the molar value.
Observable: pEC50

Observe how each entry below is paired with its result.
For O=C(O)CCCSc1ccc(-c2cccnc2N2CCCC2)cc1F the compound record lists pEC50 as 5.70 to 6.70

Form field pEC50, entry CC(C)=Cc1cccc(-c2cc(F)c(OCCCC(=O)O)c(F)c2)n1 : > 6.70

According to the records, this compound O=C(O)CCCOc1c(F)cc(-c2cc(Cl)ccc2NC2CCCC2)cc1F displays pEC50 of 5.70 to 6.70

pEC50 in this record for O=C(O)CCCOc1c(F)cc(-c2cccnc2OC2CCCCC2)cc1F : > 6.70

Please fill in: pEC50 reported for O=C(O)CCCOc1ccc(-c2cccnc2SCC2CC2)cc1 = 5.70 to 6.70

Proceed to the following item.
The recorded pEC50 for CC#CCOc1ncccc1-c1cc(F)c(OCCCC(=O)O)c(F)c1 is 4.70 to 5.70
